# target desc: BRD9 (Homo sapiens, UniProt Q9H8M2)
# protocol details: Degradation of BRD9 (IF), immunofluorescence in MV4-11 cells, 24 hours (Assay Protocol 2)
# Assay type: cell-based
# Set-up: A suspension of MV4-11 cells (ATCC CRL-9591) was prepared; host or cells: MV4-11
# condition label: MV4-11, Assay protocol 2; BRD9 degradation; read-out: Dmax
reported endpoint: Dmax

Example results:
compound: CCCC1c2cccc(CN3CCN(Cc4c(OC)cc(-c5cn(C)c(=O)c(C)c5C)cc4OC)CC34CC4)c2CCN1C(=O)/C(C#N)=C/C(C)(C)C (mixture of isomers)
reported endpoint: Dmax
observed result: > 75%
//
compound: COc1cc(-c2cn(C)c(=O)c(C)c2C)cc(OC)c1CN1CCN(Cc2cccc3c2CCN(C(=O)/C(C#N)=C/C(C)(C)C)[C@H]3C2CC2)C2(CC2)C1 (single isomer, unassigned)
reported endpoint: Dmax
observed result: > 75%
//
compound: COc1cc(-c2cn(C)c(=O)c(C)c2C)cc(OC)c1CN1CCC(Oc2cccc3c2CCN(C(=O)/C(C#N)=C/C(C)(C)C)C3C)CC1 (mixture of isomers)
reported endpoint: Dmax
observed result: 40 to 70%

Next:
The value of Dmax measured for the compound CC[C@@H]1c2cccc(CN3CCN(Cc4c(OC)cc(-c5cn(C)c(=O)c(C)c5C)cc4OC)CC34CC4)c2CCN1C(=O)/C(C#N)=C/C(C)(C)CF (single isomer, unassigned) turned out to be > 75%

====

# target desc: BRD9 (Homo sapiens)
# Sequence (Q9H8M2 1-597): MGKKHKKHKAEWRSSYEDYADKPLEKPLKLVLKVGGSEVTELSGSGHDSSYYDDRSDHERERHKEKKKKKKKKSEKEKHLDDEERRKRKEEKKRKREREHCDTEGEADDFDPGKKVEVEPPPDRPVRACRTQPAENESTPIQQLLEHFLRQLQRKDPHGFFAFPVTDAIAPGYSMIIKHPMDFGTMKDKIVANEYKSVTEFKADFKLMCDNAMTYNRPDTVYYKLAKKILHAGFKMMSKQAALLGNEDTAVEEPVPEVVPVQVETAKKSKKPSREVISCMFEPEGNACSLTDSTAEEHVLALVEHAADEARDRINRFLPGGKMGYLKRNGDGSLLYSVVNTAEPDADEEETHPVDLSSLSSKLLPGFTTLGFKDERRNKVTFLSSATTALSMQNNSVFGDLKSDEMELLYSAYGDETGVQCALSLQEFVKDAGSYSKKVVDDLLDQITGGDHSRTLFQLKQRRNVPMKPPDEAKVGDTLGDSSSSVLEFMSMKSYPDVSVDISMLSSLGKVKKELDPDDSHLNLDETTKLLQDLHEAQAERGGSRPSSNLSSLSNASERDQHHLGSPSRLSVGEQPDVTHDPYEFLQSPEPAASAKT
# protocol details: BRD9 degradation, HiBiT-BRD9 KI HEK293 (LgBiT) cells, NanoGlo Lytic Endpoint assay (Assay Protocol 1)
# Type: cell-based
# condition label: Table 2; BRD9 degradation, Assay Protocol 1; 6 h of treatment; read-out: Assay 1 DC50
reported endpoint: DC50

Example results:
molecule: COc1cc(-c2cn(C)c(=O)c3cnccc23)cc(OC)c1CN1CCN(Cc2cccc3c2CCN(C(=O)/C(C#N)=C\c2ncc(C)s2)C3C)CC1 (mixture of isomers) [Compound A10]
target desc: BRD9 (Homo sapiens)
DC50: < 1.25 nM

molecule: COc1cc(-c2cn(C)c(=O)c(C)c2C)cc(OC)c1CN1CCN(Cc2cccc(C3CCCN3C(=O)/C(C#N)=C/c3cccc(Br)n3)c2)CC1 (mixture of isomers) [Compound A63]
target desc: BRD9 (Homo sapiens)
DC50: 1.25 to 10 nM

molecule: COc1cc(-c2cn(C)c(=O)c(C)c2C)cc(OC)c1CN1CCN(C(=O)CCc2ccc3c(c2)C(C)N(C(=O)/C(C#N)=C/c2nccs2)CC3)CC1 (mixture of isomers) [Compound A55]
target desc: BRD9 (Homo sapiens)
DC50: 10 to 25 nM

molecule: COc1cc(-c2cn(C)c(=O)c(C)c2C)cc(OC)c1CN1CC2CC1CN2Cc1cccc2c1CCN(C(=O)/C(C#N)=C/C(C)(C)C)C2C (mixture of isomers) [Compound A70]
target desc: BRD9 (Homo sapiens)
DC50: 10 to 25 nM

molecule: COc1cc(-c2cn(C)c(=O)c3cnccc23)cc(OC)c1CN1CCN(Cc2cccc3c2CCN(C(=O)/C(C#N)=C/c2ncccc2F)C3C)CC1 (mixture of isomers) [Compound A42]
target desc: BRD9 (Homo sapiens)
DC50: 10 to 25 nM

molecule: COc1cc(-c2cn(C)c(=O)c(C)c2C)cc(OC)c1CN1CCN(Cc2cccc3c2CCN(C(=O)/C(C#N)=C/c2cccc(C(F)(F)F)n2)C3C)CC1 (mixture of isomers) [Compound A53]
target desc: BRD9 (Homo sapiens)
DC50: 1.25 to 10 nM

molecule: COc1cc(-c2cn(C)c(=O)c3cnccc23)cc(OC)c1CN(C)Cc1ccc2c(c1)CCN(C(=O)/C(C#N)=C/c1cccc(Br)n1)C2C (mixture of isomers) [Compound A66]
target desc: BRD9 (Homo sapiens)
DC50: < 1.25 nM

molecule: COc1cc(-c2cn(C)c(=O)c3cnccc23)cc(OC)c1CN1C2CC1CN(Cc1cccc3c1CCN(C(=O)/C(C#N)=C/C(C)(C)C)C3C)C2 (mixture of isomers) [Compound A40]
target desc: BRD9 (Homo sapiens)
DC50: 10 to 25 nM

The value of DC50 measured for the molecule COc1cc(-c2cn(C)c(=O)c3cnccc23)cc(OC)c1CN1CCN(Cc2ccc(C3CCCN3C(=O)/C(C#N)=C/c3nccs3)cc2)CC1 (mixture of isomers) [Compound A38] turned out to be 1.25 to 10 nM

The value of DC50 measured for the molecule COc1cc(-c2cn(C)c(=O)c3cnccc23)cc(OC)c1CN1CCN(Cc2cccc3c2CCN(C(=O)/C(C#N)=C/c2nccs2)C3C)CC1 (mixture of isomers) [Compound A2] turned out to be < 1.25 nM
